- system_name: T1, Flag-PTHR1-YFP (parathyroid hormone receptor 1) expressed in transfected HEK293T cells (human, UniProt Q03431 27-593)
- T1 sequence (looked up): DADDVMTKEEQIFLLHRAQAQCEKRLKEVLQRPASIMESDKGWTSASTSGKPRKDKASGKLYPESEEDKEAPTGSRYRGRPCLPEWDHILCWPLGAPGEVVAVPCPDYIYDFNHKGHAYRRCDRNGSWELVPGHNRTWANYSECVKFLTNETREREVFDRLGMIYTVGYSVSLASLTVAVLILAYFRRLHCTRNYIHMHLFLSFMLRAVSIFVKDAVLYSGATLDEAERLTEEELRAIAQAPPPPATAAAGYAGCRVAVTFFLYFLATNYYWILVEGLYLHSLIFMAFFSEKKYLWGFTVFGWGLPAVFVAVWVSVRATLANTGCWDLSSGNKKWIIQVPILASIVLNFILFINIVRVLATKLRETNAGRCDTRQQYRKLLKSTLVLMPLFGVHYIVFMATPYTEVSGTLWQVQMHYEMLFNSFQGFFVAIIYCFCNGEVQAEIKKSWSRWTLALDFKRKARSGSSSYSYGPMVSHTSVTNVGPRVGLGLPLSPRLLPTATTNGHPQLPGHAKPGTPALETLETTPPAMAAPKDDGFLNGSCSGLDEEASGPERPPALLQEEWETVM
- assay_overview: cell-based or functional assay
measured_quantity: arrestin 1, plate 13: -log10EC50

What does the data say about its arrestin 1, plate 13: -log10EC50? Entry: AVAEIQLMHQRAKWGLEIELLKLLLSLLKEYI [R2-45]
-6.32 -log10EC50

What does the data say about its arrestin 1, plate 13: -log10EC50? Entry: AVAEIQLMHQRAKWELQEIGIAITLRLLARYI [R2-43]
-8.31 -log10EC50

What does the data say about its arrestin 1, plate 13: -log10EC50? Entry: AVAEIQLMHQRAKWSLREELEKLLKELLKEYI [R2-44]
-8.54 -log10EC50

What does the data say about its arrestin 1, plate 13: -log10EC50? Entry: AVAEIQLMHQRAKWKILEELLKILIDLLKQYI [R2-48]
-5.72 -log10EC50

What does the data say about its arrestin 1, plate 13: -log10EC50? Entry: AVAEIQLMHQRAKWDVLIELAKLLAELLRRYH [R2-47]
-5.84 -log10EC50

What does the data say about its arrestin 1, plate 13: -log10EC50? Entry: AVAEIQLMHQRAKWSILEELLKILTALLDEYI [R2-46]
-6.25 -log10EC50
